Test description: Serum and tumor levels after a single oral dose in male OCI-LY3 tumor-bearing NSG mice
Assay type: in vivo
Test conditions: male, NSG, mouse, serum; 100 mg/kg single oral dose, PEG400 solution, 24 h post dose; mean (SD)
Assay readout: concentration at 24 h (ng/mL)
Answer in ng/mL, number only, no unit symbol.

*Q* Which value of concentration at 24 h has been reported for O=C(Nc1ccnc(C(F)(F)F)c1)c1cnn(-c2cccc3c(=O)[nH]ccc23)c1C(F)(F)F in the records?
*A* 1060

* * *

Test description: Oral bioavailability, 5 mg/kg solution in PEG400
Type: in vivo, mice, rats, dogs, and monkeys
Test conditions: mouse, rat, dog, monkey, plasma; all species (mice, rats, dogs, monkeys), oral 5 mg/kg
Assay readout: bioavailability

*Q* Which value of bioavailability has been reported for O=C(Nc1ccnc(C(F)(F)F)c1)c1cnn(-c2cccc3c(=O)[nH]ccc23)c1C(F)(F)F [Compound A] in the records?
*A* > 50%
